- Test system: Mycobacterium tuberculosis variant bovis
- Experiment Summary: Antimycobacterial activity against Mycobacterium bovis BCG overexpressing DprE1 assessed as inhibition of bacterial growth incubated for 7 days by microplate alamar blue assay
- Type: functional
- Condition: 168 h, time 7 day
Below, each entry is listed with its recorded MIC.
All answers are understood in µM, so give the number only.

[in] Test system Mycobacterium tuberculosis variant bovis; read-out MIC; what value for O=C(NC(=O)c1ccsc1NC(=O)c1nc2ccccc2s1)OCC1CCC1 ?
[out] 30

[in] Report MIC for CCOC(=O)NC(=O)c1ccsc1NC(=O)c1nc2ccccc2s1 tested on Mycobacterium tuberculosis variant bovis.
[out] 66.5

[in] Which MIC is reported with Mycobacterium tuberculosis variant bovis for this entry: CO[C@H]1/C=C/O[C@@]2(C)Oc3c(C)c(O)c4c(O)c(c(/C=N/N5CCN(C)CC5)c(O)c4c3C2=O)NC(=O)/C(C)=C\C=C\[C@H](C)[C@H](O)[C@@H](C)[C@@H](O)[C@@H](C)[C@H](OC(C)=O)[C@@H]1C [RIFAMPIN] ?
[out] 0.35

[in] Form: Entry = O=C(NC(=O)c1ccsc1NC(=O)c1nc2ccccc2s1)OCC1CC1 | System = Mycobacterium tuberculosis variant bovis | MIC = ____
[out] 12.4
